Biological target: ubiquitin E1 (UBA1) (Homo sapiens, UniProt P22314)
Sequence (P22314 2-1058): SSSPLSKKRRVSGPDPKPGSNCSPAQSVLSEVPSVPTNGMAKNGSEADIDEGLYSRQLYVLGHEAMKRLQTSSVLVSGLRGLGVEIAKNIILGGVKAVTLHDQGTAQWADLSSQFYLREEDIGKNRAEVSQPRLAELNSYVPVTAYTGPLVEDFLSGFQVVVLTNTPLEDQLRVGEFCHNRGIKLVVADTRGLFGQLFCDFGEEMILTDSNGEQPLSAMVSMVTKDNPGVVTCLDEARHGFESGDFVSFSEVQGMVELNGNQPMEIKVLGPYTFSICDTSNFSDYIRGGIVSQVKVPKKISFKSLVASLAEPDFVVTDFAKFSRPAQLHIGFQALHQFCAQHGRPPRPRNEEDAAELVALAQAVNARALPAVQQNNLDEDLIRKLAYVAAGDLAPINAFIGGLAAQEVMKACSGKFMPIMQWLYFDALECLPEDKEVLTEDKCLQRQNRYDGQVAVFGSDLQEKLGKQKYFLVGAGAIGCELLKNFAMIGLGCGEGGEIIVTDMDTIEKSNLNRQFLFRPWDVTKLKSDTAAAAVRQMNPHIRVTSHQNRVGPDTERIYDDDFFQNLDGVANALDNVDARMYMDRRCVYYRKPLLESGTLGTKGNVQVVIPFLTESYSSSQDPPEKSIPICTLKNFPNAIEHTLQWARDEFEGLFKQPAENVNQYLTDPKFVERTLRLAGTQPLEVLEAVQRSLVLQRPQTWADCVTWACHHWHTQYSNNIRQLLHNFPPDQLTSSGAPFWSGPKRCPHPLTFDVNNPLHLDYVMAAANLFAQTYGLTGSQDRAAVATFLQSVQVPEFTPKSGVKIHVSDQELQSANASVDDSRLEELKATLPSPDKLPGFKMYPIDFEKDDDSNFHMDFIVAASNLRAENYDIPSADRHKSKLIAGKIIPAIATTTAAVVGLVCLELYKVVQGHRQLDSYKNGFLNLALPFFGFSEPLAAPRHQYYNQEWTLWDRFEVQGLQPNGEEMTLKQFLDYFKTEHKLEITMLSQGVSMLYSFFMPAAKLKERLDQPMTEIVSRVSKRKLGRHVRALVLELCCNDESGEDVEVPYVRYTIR
Test: E1-ubiquitin thioester gel assay with fluorescein-ubiquitin without E2
Format: biochemical
REPORTED_ENDPOINT: IC50

Can you look up the measured IC50 of CCCCCCCCCCNCCSSCc1ccc(Cl)cc1 [compound 1, NSC624206] for me? ~9 µM
